assay: soluble fraction after stress (log2 fold change); higher = more stays soluble; pooled small domains, quantitative proteomics; settings: stress: pH 4
# soluble fraction (log2) listing for each entry below
Quick one: just the number, no unit, thanks!

For orientation, consider the following solved cases.
# SEQ, soluble fraction (log2)
rows = [
    ("HMTHANAALTPRHRLKVARLVVDEGWPVSEVAARFQVSWPTVKRWADRYRAGQSMQDRSSRP", 0.228),
    ("HMGKPAGLIRELGNHPEDEKPVTLNNGRFGPYVKHGKVMASLTKADSPDDITFDRAIELIAIKAEKMAAKG", -0.00901),
    ("HMSDYKSYLQELVQTDKKSLSYNVVKETGPAHDKTFEVEVEVDGIIYAHGVGKSKKEAEQNAAKNAIMISA", -0.24),
]

We next turn to a different sequence, shown below.
Exercise: Given the entry HMYYSERILTILEERGISPYRVSKETGISQSVFSNWKRKPTSRITAANLERLADYLGLPVEVLTG , report its measured soluble fraction (log2).
Solution: 0.134

* * *

assay: soluble fraction after stress (log2 fold change); higher = more stays soluble; pooled small domains, quantitative proteomics; details: stress: pH 4
Threshold check on soluble fraction (log2): at or above 0.06 gives fulfilled, strictly below gives not fulfilled.

Reference set, count: 5
# SEQ, ASSIGNED_LABEL
measured = [
    ("HMRSTIYEFTVPPGQLESIRLDVYITSFVENATRSKVQEAIKQGYVWVNGKHEKASYTMLPGDKIYIELPI", "not fulfilled"),
    ("HMGAGDKQAQQASLMQIIALQKEGMALGLVEPKHLYHSFSKMIENAGFKDVQSFAVDPSTQQ", "not fulfilled"),
    ("HMEILTLEELKRLMAKAKLKQNQISGHAGVSKQQISMILAGKRNITKDVSDNLKANLAEYFP", "fulfilled"),
    ("HMQGIPVTVTAERANLRSGPGTSFDKLGQVVQGDVLTLLEVQNDWYKVKTAEGKTAFVAAYLVNSP", "not fulfilled"),
    ("HMGSQLYTLEVEADEKISLIENNPLLIQKIYLKDNNLFSYKIASSSKTEIASIEKELEKNPSIKRLETA", "not fulfilled"),
]

Exercise: Is reported soluble fraction (log2) greater than or equal to 0.06 here: HMPLEKGVVILDVTPSSAKVAVDGTSVETTYPLRLSAGLHQLSAEADGYDSITEYFKVETEKTTVTLDLSK
Solution: fulfilled

* * *

experiment: soluble fraction after stress (log2 fold change); higher = more stays soluble; pooled small domains, quantitative proteomics; settings: stress: pH 4
# maps each entry to its soluble fraction (log2)

Previously resolved entries follow.
# SEQ, soluble fraction (log2)
records = [
    ("HMERLSNQVYAILKEMIADYRFNPGARINVEQIAKEVGASRTPVWEAVHRLVQEGLLENIPNRGVFML", -1.11),
    ("HMGITPSIEMILEYFAFKESSETEANKFFNYYSSIGWLVGGKTKMKDWKASARNWIMNQNKFQ", -1.01),
    ("HMQTKSDMVYHRVREDIVNGVFAPGERLLISAVAKQYGVSEIPVREAFRVLSQEGFLKTRPNSGFVVS", -0.294),
    ("HMGREVVVPNLAGIEKEVALDLLKKNRLGGMITGTRFSSDFPAGQVIQQMPEAGSRVKVGKQVKLVLSEG", 0.334),
]

// next item, soluble fraction (log2) requested
Exercise: Query: soluble fraction (log2); subject: HMREFQVMKQELQEMVHQRLDMSTELSDEAIGDVIDEVIMEKSRNMYISSVTKLTLRQELFNAIR
Solution: -2.14

* * *

test: soluble fraction after stress (log2 fold change); higher = more stays soluble; pooled small domains, quantitative proteomics; conditions: stress: pH 4
READOUT: soluble fraction (log2)

Below, each entry is followed by its recorded soluble fraction (log2) result.
# SEQ, OBSERVED_MEASUREMENT
rows = [
    ("HMAVLFFVKRGERILGPTRLADLFQHAASGRLRANDLVGESPKGPWLPARQLDELEDAWASSRDATEAAAA", -0.0753),
    ("HMAKIATTVYEQIRTAILNGELSNSERLVEEDLAVSMGISRTPVREALRRLAAEGLVDVSPNRGARVAE", -0.778),
    ("HMRGDEDTGVWPTPMKRAYIDSLLKGYPTGVTMIVKPPGASHTTKWMILDGANRARALRDFMNDEFMI", -0.155),
    ("HMRKTLSQEAYEKIKQNLEDGVYQGYINGRQVARDLDIGFTPVREAFLQLQSEGLIRKEDNVGYFV", -0.183),
]

Exercise: Give its soluble fraction (log2) value. Item: HMELSAEGWVDGTGVRMRASASTDSEVVRVTEDGESLDITGVSGTWYRVTAGGVSGYIRSDYVSLEEP
Solution: -0.186

Exercise: Entry under review: HMKDMKISTKNLLQELAKNYPDQTSFRKNVIETTARAMGYTGKDFYPLLTTDNRVKIGTYDLATFLRSI . Reported soluble fraction (log2)?
Solution: -0.122

Exercise: Recorded soluble fraction (log2) of HMHSFFGDNIKKLRTAKKMSQEQLADIFGITKAGISYWETGRSEPNFATVQKLADFFGVTTSDLLGEA , please.
Solution: 0.187

* * *

experiment: soluble fraction after stress (log2 fold change); higher = more stays soluble; pooled small domains, quantitative proteomics; conditions: stress: pH 4
Would you please tag the item Criterion met when its soluble fraction (log2) is -0.09 or above, and Criterion not met when it is below?

Some solved entries appear below for comparison.
# SEQ, ASSIGNED_LABEL
measured = [
    ("HMDQAEDVLSIPVDALMRGNQVYIKDDTVTEQQGPIPAGFKAVEVETGLISDSYVEIKSGLSEGDTVYVAE", "Criterion not met"),
    ("HMRDFTQPQTASIGPRMREALARGTMTVEELREQFRTQEFPHESVRTAFLEELERVAAELGLA", "Criterion not met"),
    ("HMDFLKSVDLSKYSKVESLILSHLSKGDFDIDDFIRSFSLGTDEVTRAIVSLEIEGIILRKGNRIFRKKS", "Criterion met"),
    ("HMHESLAEVAARKLRALIVTGELAPGERVTEAGLTDLLEISRTPAREAIRILSSEGLLVVFPNRGAEVV", "Criterion not met"),
    ("HMGTHSAEQVRAAIRAIVAAEDAANPLSDARITELLAMRGIAAARRTVMKYREQLGIPSSAKRRR", "Criterion met"),
]

Exercise: Dear colleague, could you confirm whether HMVVSDSAEIDKIVQDVIAANPKAIEDFKSGKTNVTGWLMGQVMKLSHGKANPKQATEILNKYLSK has soluble fraction (log2) at or above -0.09?
Solution: Criterion met

Exercise: Check if soluble fraction (log2) >= -0.09 (inclusive). Item: HMTSRFITTEEGTLYVDADGRKVSGWQTIDGSRYYFDEHGIRQSGTIEVNGETYVLDEDGVL
Solution: Criterion not met

* * *

Overview of reported soluble fraction (log2) across a group of sequences:
assay: soluble fraction after stress (log2 fold change); higher = more stays soluble; pooled small domains, quantitative proteomics; settings: stress: pH 4
Lab note: record just the number, no unit beside it.

Please review the entries below; each comes with its answer.
# SEQ, OBSERVED_MEASUREMENT
rows = [
    ("HMEDGRLPPPGTVLRREYKGRAVFVRVLPKGFEFEGEVYRSLSAIAAKVTGSHWNGFRFFGLHE", 0.199),
    ("HMDERLLRLYERELQFLREGADEFAQAYPKVAGHLGLNSQSMGDPFIERLLEGLGFLTARIQLQLESEF", -0.823),
    ("HMTVPAGIVLSSIRQDGDVLHIRGTAQSTERLNFFRNSFSASWGSPAQNGKRKADPVTGLVDFTISLK", -1.16),
    ("HMVNSADLAAKPFIDLLVSTRQQLREAKQYDLADTIRDELTNHGITIEDKPQGSEWQYEFNPNS", -0.499),
    ("HMTMLLEYNVSRSSKWMNKTIMDAEIPDDILIVMIKRNGQVIVPKGSTEILENDILVLSGNNLNEVALG", -1.46),
]

Exercise: Sample HMEIPTPAELREKRIRMGLKQADVARMAGISQSMVARIESGSVDPRVSTLAKIVEVLQAAER — what was its soluble fraction (log2)?
Solution: 0.185

Exercise: Item under review: HMTRYQHLAMLLEKRIAQGLYRNGERLPSVRSLSAEHGVSISTVQQAYYLLEQKQLIIPQSRSGYYVAPH . Reported soluble fraction (log2)?
Solution: -0.378

* * *

experiment: soluble fraction after stress (log2 fold change); higher = more stays soluble; pooled small domains, quantitative proteomics; details: stress: pH 4
READOUT: soluble fraction (log2)

Below, each entry is followed by its recorded soluble fraction (log2) result.
# SEQ, soluble fraction (log2)
measured = [
    ("HMKMLPAEVLTHPAVVALIERGAPTGSITPEEVRQASEDAAVEPRHLKALLAHLSALGISVQIP", -0.266),
    ("HMNNPISMQKLRQVIRLYGQGKGTKSINSMLGVSRNTIKKYLQVYHSSGINYESFLAMSDKELSAVFLV", 0.226),
    ("HMIIYGLNPVKDFINLFPNKISTLFISKNKLSDSEMKSVVNINTVYVSDAELKRITGTTKHQSLAAEID", -0.721),
    ("HMNTNDFTIGTRVRTTKKGNGSSDGTSNTARSGIEGTITRIIPEAKYPYLVSTTVPMGWYKKDALEK", 0.157),
    ("HMAAVSTDEEFAALGIPAEWIPVLKSNGFQTVESLKKVAPGALFNQLGGLRKKNKLEIAMPSLDQVKAWLA", -0.278),
]

Exercise: Entry HMGLVQQSAQKSDDAAKLMAANNLNAAQSKYQLPDEAEKDFFTFAFERGYAVEDFVDAGLVDKIMADFSA : reported soluble fraction (log2) = ?
Solution: -0.44

Exercise: // returns reported soluble fraction (log2) for input HMSEQGVITAKFASIVGNQNIQLVMFPDSVYLKGQVSSEEEKKRAETVASSLIQDRKIVNLIEFE
Solution: -0.638

Exercise: # get_value(readout='soluble fraction (log2)', item= HMQSITAGDKVRVKNYTVSGGKKRGKVYGGAGTFVVYYEKYDVISVTGDRVVIGIGKAVTAAVHIDDLEK )
Solution: -0.932
